Reference for the values: patent US7598417B2

Target: alpha2A receptor (Homo sapiens, UniProt P08913)
Construct: expressed in transfected cells; host or cells: NIH-3T3
Sequence (P08913 1-465): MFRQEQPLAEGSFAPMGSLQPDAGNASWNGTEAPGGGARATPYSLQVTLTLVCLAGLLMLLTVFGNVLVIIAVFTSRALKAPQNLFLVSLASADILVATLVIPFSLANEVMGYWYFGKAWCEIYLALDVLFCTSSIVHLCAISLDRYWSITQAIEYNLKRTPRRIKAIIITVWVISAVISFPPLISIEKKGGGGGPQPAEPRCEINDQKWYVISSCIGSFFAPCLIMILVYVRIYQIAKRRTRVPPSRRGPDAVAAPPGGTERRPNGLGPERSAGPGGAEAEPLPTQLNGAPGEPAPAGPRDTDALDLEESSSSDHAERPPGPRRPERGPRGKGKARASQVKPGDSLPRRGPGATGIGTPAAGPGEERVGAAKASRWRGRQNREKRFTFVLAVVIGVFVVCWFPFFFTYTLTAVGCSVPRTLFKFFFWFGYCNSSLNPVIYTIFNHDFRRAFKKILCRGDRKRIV
Test: Receptor Selection and Amplification Technology (RSAT) assay, alpha2A
Assay type: cell-based
Settings: ratio of maximal effect of the drug to maximal effect of standard full agonist brimonidine (UK14304)
RECORDED_METRIC: Alpha 2A IA (intrinsic activity)

>>> numeric_value("O=C(NCCF)NC1CCc2c(Br)cccc21 (stereo not drawn)")
0.97
>>> numeric_value("O=C(NCCF)NC1CCCc2c(Cl)cccc21 (stereo not drawn)")
0.42
>>> numeric_value("O=C(NCCF)NC1CCc2c(OC(=O)c3ccccc3)cccc21 (stereo not drawn)")
0.62
>>> numeric_value("O=C(NCCF)NC1CCCc2c(Br)cccc21 (stereo not drawn)")
0.41
>>> numeric_value("O=C(NCCF)NC1CCc2c(Cl)cccc21 (stereo not drawn)")
1.05
>>> numeric_value("O=C(NCCF)NC1CCc2c(O)cccc21 (stereo not drawn)")
0.53
>>> numeric_value("Cc1cc(C)c2c(c1)C(NC(=O)NCCF)CCC2 (stereo not drawn)")
0.49
>>> numeric_value("O=C(NCCF)NC1CCCCc2ccccc21 (stereo not drawn)")
0.3
>>> numeric_value("COc1cccc2c1CCCC2NC(=O)NCCF (stereo not drawn)")
0.37
>>> numeric_value("Cc1cccc2c1CCC2NC(=O)NCCF (stereo not drawn)")
0.59
>>> numeric_value("O=C(NCCF)NC1CCCc2c(F)cccc21 (stereo not drawn)")
0.52
>>> numeric_value("CCC1=CCCCC1NC(=O)NCCF (stereo not drawn)")
0.64

----------
Listed here: items and their measured Alpha 2B IA (intrinsic activity).
Biological target: alpha2B receptor (Homo sapiens)
Construct: expressed in transfected cells; host or cells: NIH-3T3
Sequence (P18089 whole entry): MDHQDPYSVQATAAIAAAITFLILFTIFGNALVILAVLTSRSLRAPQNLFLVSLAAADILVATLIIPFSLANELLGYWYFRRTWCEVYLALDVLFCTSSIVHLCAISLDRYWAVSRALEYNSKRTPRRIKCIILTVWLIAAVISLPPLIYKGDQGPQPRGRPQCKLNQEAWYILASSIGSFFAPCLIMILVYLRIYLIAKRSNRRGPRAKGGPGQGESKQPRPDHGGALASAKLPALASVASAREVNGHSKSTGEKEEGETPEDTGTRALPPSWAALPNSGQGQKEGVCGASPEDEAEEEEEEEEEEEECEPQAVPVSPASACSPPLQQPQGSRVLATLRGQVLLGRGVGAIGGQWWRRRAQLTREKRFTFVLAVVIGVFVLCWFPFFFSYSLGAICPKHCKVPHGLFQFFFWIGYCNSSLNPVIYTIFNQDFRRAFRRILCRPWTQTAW
Experiment: Receptor Selection and Amplification Technology (RSAT) assay, alpha2B
Type: cell-based
Conditions: ratio of maximal effect of the drug to maximal effect of standard full agonist brimonidine (UK14304)
RECORDED_METRIC: Alpha 2B IA (intrinsic activity)

>>> numeric_value("CC1Cc2ccccc2C1NC(=O)NCCF (centres unmarked)")
0.85
>>> numeric_value("O=C(NCCF)NC1CCCc2c(Br)cccc21 (centres unmarked)")
0.91
>>> numeric_value("O=C(NCCF)NCC1CCc2ccccc21 (centres unmarked)")
0.76
>>> numeric_value("O=C(NCCF)N[C@@H]1CCc2ccccc21")
0.55
>>> numeric_value("O=C(NCCF)NC1Cc2ccccc2C1")
0.92
>>> numeric_value("CC1CCC(NC(=O)NCCF)c2ccccc21 (centres unmarked)")
0.89
>>> numeric_value("CC1=C(C)C(NC(=O)NCCF)CC1 (centres unmarked)")
1.07
>>> numeric_value("COc1ccc2c(c1)C(NC(=O)NCCF)CCC2 (centres unmarked)")
0.78
>>> numeric_value("O=C(NCCF)NC1Cc2cccc(Br)c2C1 (centres unmarked)")
0.45
>>> numeric_value("Cc1c(Cl)ccc2c1C(NC(=O)NCCF)CC2 (centres unmarked)")
0.6
>>> numeric_value("O=C(NCCF)NC1Cc2cccc(Cl)c2C1 (centres unmarked)")
0.67
>>> numeric_value("COc1cccc2c1CCC2NC(=O)NCCF (centres unmarked)")
0.72
>>> numeric_value("CCC[C@@H]1CCCC[C@H]1NC(=O)NCCF")
0.84
>>> numeric_value("Cc1ccc2c(c1)CC(NC(=O)NCCF)C2 (centres unmarked)")
0.6
>>> numeric_value("CC1=C(C)C(NC(=O)NCCF)CCC1 (centres unmarked)")
0.76
>>> numeric_value("O=C(NCCF)NC1CCCc2occc21 (centres unmarked)")
0.81
>>> numeric_value("COc1cccc2c1CCCC2NC(=O)NCCF (centres unmarked)")
0.84
